- target-under-test: D(2) dopamine receptor (Homo sapiens, UniProt P14416)
- Sequence (P14416 whole entry): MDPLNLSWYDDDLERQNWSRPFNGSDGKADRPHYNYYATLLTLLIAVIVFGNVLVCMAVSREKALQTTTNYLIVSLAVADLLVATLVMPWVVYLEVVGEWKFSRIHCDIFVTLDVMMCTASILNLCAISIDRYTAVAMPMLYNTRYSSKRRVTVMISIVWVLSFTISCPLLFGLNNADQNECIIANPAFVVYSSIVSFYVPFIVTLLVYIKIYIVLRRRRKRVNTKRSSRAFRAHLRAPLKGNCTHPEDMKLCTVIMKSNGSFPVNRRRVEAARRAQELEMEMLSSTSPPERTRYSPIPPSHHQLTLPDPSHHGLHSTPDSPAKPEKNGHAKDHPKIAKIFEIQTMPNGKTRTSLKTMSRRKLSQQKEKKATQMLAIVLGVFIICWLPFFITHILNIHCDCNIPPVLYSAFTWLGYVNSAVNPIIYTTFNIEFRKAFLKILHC
- assay-comment: Binding affinity to dopamine D2 receptor
pKd: −log10 of the molar value.

smiles-entry: COc1ccc(C[C@H](C)CN2C[C@@H]3CCCC[C@@H]3[C@H](C(=O)N3CCN(c4ccc(F)c(F)c4)CC3)C2)cn1.O=C(O)/C=C/C(=O)O
pKd: 6.13

====

pKd: −log10 of the molar value.
List of pKd tested on Somatostatin receptor type 2 (Rattus norvegicus, UniProt P30680).
Sequence (P30680 whole entry): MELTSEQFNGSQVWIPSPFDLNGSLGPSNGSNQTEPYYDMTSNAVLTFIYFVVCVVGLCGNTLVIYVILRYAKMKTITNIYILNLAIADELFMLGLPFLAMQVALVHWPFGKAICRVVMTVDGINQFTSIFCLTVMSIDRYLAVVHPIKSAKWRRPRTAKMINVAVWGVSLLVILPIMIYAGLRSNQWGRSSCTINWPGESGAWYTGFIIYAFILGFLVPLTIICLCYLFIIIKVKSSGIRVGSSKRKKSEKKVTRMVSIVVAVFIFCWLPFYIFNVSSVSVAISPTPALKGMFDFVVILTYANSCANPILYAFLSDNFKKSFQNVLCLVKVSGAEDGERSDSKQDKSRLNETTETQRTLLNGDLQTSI

smiles-entry: C[C@@H](Cc1ccc2nsnc2c1)CN1C[C@@H]2CCCC[C@@H]2[C@H](C(=O)N2CCN(c3ccc(F)c(F)c3)CC2)C1
pKd: 6.82
//
smiles-entry: COc1ccc(C[C@H](C)CN2C[C@@H]3CCCC[C@@H]3[C@H](C(=O)N3CCN(c4ccc(F)c(F)c4)CC3)C2)cn1.O=C(O)/C=C/C(=O)O
pKd: 6.94
//
smiles-entry: COc1ccc(C[C@@H](C)CN2C[C@H]3CCCC[C@H]3[C@@H](C(=O)N3CCN(c4ccc(F)c(F)c4)CC3)C2)cn1
pKd: 4.68
